- Tested on: RXF 393
- TEST: Growth inhibition of human RXF393 cells after 48 hrs by sulforhodamine B assay
- Assay type: functional
- CONDITION NOTES: RXF 393, 48 h, read-out: pLC50 (the source's name) (converted)
// reported CC50 for each item listed

Nc1cc(N)c2nc(-c3ccccc3)c(NCc3ccc(F)cc3)nc2c1 = 60.3 µM
Nc1cc(N)c2nc(-c3ccccc3)c(NCc3ccc(Cl)c(Cl)c3)nc2c1 = > 100 µM
COc1ccc(CNc2nc3cc(N)cc(N)c3nc2-c2ccccc2)cc1 = 44.7 µM
Nc1cc(N)c2nc(-c3ccccc3)c(Sc3ccc(F)cc3)nc2c1 = > 100 µM
COc1cc(OC)cc(Oc2nc3cc(N)cc(N)c3nc2-c2ccccc2)c1 = 44.7 µM

Asked: Suppose we examine the compound COc1ccc(Sc2nc3cc(N)cc(N)c3nc2-c2ccccc2)cc1 ; what CC50 value has been reported?
Given back: > 100 µM

Asked: Suppose we examine the compound COc1cc(CNc2nc3cc(N)cc(N)c3nc2-c2ccccc2)cc(OC)c1 ; what CC50 value has been reported?
Given back: > 100 µM

Asked: Suppose we examine the compound Nc1cc(N)c2nc(-c3ccccc3)c(Oc3ccc(Cl)c(Cl)c3)nc2c1 ; what CC50 value has been reported?
Given back: > 100 µM

---

- Test system: OVCAR-3
- TEST: Growth inhibition of human OVCAR-3 cells after 48 hrs by sulforhodamine B assay
- Type: functional
- CONDITION NOTES: OVCAR-3, 48 h, read-out: pTGI (converted)
ASSAY READOUT: TGI (µM)
Please state the figure in µM; there is no need to write the unit.

Worked examples, 4 compounds total:
Nc1cc(N)c2nc(-c3ccccc3)c(NCc3ccc(Cl)c(Cl)c3)nc2c1 = 6.92
COc1ccc(Oc2nc3cc(N)cc(N)c3nc2-c2ccccc2)cc1 = 72.4
COc1ccc(CNc2nc3cc(N)cc(N)c3nc2-c2ccccc2)cc1 = 7.76
Nc1cc(N)c2nc(-c3ccccc3)c(NCc3ccc(F)cc3)nc2c1 = 6.46

Asked: Entry COc1ccc(CNc2nc3cc(N)cc(N)c3nc2-c2ccccc2)cc1OC , system OVCAR-3: what TGI was measured?
Given back: 3.31

Asked: Entry COc1cc(CNc2nc3cc(N)cc(N)c3nc2-c2ccccc2)cc(OC)c1OC , system OVCAR-3: what TGI was measured?
Given back: 3.39

Asked: Entry Nc1cc(N)c2nc(-c3ccccc3)c(Sc3ccc(F)cc3)nc2c1 , system OVCAR-3: what TGI was measured?
Given back: 33.9

Asked: Entry COc1cc(OC)cc(Oc2nc3cc(N)cc(N)c3nc2-c2ccccc2)c1 , system OVCAR-3: what TGI was measured?
Given back: 8.71

Asked: Entry Nc1cc(N)c2nc(-c3ccccc3)c(Oc3ccc(Cl)c(Cl)c3)nc2c1 , system OVCAR-3: what TGI was measured?
Given back: 26.9

---

- Tested on: SK-MEL-5
- TEST: Growth inhibition of human SK-MEL-5 cells after 48 hrs by sulforhodamine B assay
- Type: functional
- CONDITION NOTES: SK-MEL-5, 48 h, read-out: pTGI (converted)
// reported log10 TGI for each item listed
# values: log10(TGI), units µM

Asked: Suppose we examine the compound COc1cc(OC)cc(Oc2nc3cc(N)cc(N)c3nc2-c2ccccc2)c1 ; what log10 TGI value has been reported?
Given back: 0.81

Asked: Suppose we examine the compound COc1ccc(CNc2nc3cc(N)cc(N)c3nc2-c2ccccc2)cc1 ; what log10 TGI value has been reported?
Given back: 1.50

---

// reported GI50 for each item listed
- System: SW-620
- TEST: Growth inhibition of human SW620 cells after 48 hrs by sulforhodamine B assay
- Format: functional
- CONDITION NOTES: SW-620, 48 h
Please state the figure in µM; there is no need to write the unit.

Worked examples, 3 compounds total:
COc1cc(OC)cc(Oc2nc3cc(N)cc(N)c3nc2-c2ccccc2)c1 = 2.24
COc1cc(CNc2nc3cc(N)cc(N)c3nc2-c2ccccc2)cc(OC)c1OC = 1.55
COc1ccc(Sc2nc3cc(N)cc(N)c3nc2-c2ccccc2)cc1 = 26.3

Asked: Suppose we examine the compound Nc1cc(N)c2nc(-c3ccccc3)c(NCc3ccc(F)cc3)nc2c1 ; what GI50 value has been reported?
Given back: 2.19

Asked: Suppose we examine the compound Nc1cc(N)c2nc(-c3ccccc3)c(Sc3ccc(Cl)c(Cl)c3)nc2c1 ; what GI50 value has been reported?
Given back: 20.9

Asked: Suppose we examine the compound COc1ccc(CNc2nc3cc(N)cc(N)c3nc2-c2ccccc2)cc1 ; what GI50 value has been reported?
Given back: 12.9

---

- Tested on: CCRF-CEM
- TEST: Growth inhibition of human CCRF-CEM cells after 48 hrs by sulforhodamine B assay
- Type: functional
- CONDITION NOTES: read-out: pTGI (converted)
# TGI >= 9 µM gives YES, anything below gives NO

Look over these answered cases.
COc1cc(CNc2nc3cc(N)cc(N)c3nc2-c2ccccc2)cc(OC)c1 = NO
COc1ccc(Oc2nc3cc(N)cc(N)c3nc2-c2ccccc2)cc1 = YES
COc1ccc(Sc2nc3cc(N)cc(N)c3nc2-c2ccccc2)cc1 = NO
Nc1cc(N)c2nc(-c3ccccc3)c(Oc3ccc(Cl)c(Cl)c3)nc2c1 = YES
Nc1cc(N)c2nc(-c3ccccc3)c(Sc3ccc(Cl)c(Cl)c3)nc2c1 = YES
COc1ccc(CNc2nc3cc(N)cc(N)c3nc2-c2ccccc2)cc1OC = YES
Nc1cc(N)c2nc(-c3ccccc3)c(NCc3ccc(Cl)c(Cl)c3)nc2c1 = NO
COc1cc(OC)cc(Oc2nc3cc(N)cc(N)c3nc2-c2ccccc2)c1 = NO

# evaluate next
Asked: Could you please find out whether COc1ccc(CNc2nc3cc(N)cc(N)c3nc2-c2ccccc2)cc1 has TGI that meets 9 µM or exceeds it?
Given back: YES

---

- System: HT-29
- TEST: Growth inhibition of human HT-29 cells after 48 hrs by sulforhodamine B assay
- Type: functional
- CONDITION NOTES: HT-29, 48 h
ASSAY READOUT: GI50 (µM)
Please state the figure in µM; there is no need to write the unit.

Worked examples, 5 compounds total:
COc1ccc(CNc2nc3cc(N)cc(N)c3nc2-c2ccccc2)cc1 = 24.5
Nc1cc(N)c2nc(-c3ccccc3)c(Sc3ccc(F)cc3)nc2c1 = 17.8
Nc1cc(N)c2nc(-c3ccccc3)c(NCc3ccc(F)cc3)nc2c1 = 3.16
COc1ccc(Oc2nc3cc(N)cc(N)c3nc2-c2ccccc2)cc1 = 39.8
COc1ccc(CNc2nc3cc(N)cc(N)c3nc2-c2ccccc2)cc1OC = 1.86

Shifting focus to the compound that follows.
Asked: Suppose we examine the compound COc1cc(CNc2nc3cc(N)cc(N)c3nc2-c2ccccc2)cc(OC)c1OC ; what GI50 value has been reported?
Given back: 8.71

---

- Test system: ACHN
- TEST: Growth inhibition of human ACHN cells after 48 hrs by sulforhodamine B assay
- Format: functional
- CONDITION NOTES: read-out: pLC50 (the source's name) (converted)
ASSAY READOUT: CC50 (µM)
Please state the figure in µM; there is no need to write the unit.

Worked examples, 5 compounds total:
COc1ccc(CNc2nc3cc(N)cc(N)c3nc2-c2ccccc2)cc1OC = 81.3
COc1ccc(CNc2nc3cc(N)cc(N)c3nc2-c2ccccc2)cc1 = 75.9
Nc1cc(N)c2nc(-c3ccccc3)c(Sc3ccc(Cl)c(Cl)c3)nc2c1 = 5.62
COc1cc(CNc2nc3cc(N)cc(N)c3nc2-c2ccccc2)cc(OC)c1OC = 23.4
Nc1cc(N)c2nc(-c3ccccc3)c(Oc3ccc(F)cc3)nc2c1 = 81.3

Shifting focus to the compound that follows.
Asked: Suppose we examine the compound Nc1cc(N)c2nc(-c3ccccc3)c(NCc3ccc(F)cc3)nc2c1 ; what CC50 value has been reported?
Given back: 5.62

---

- Test system: T47D
- TEST: Growth inhibition of human T47D cells after 48 hrs by sulforhodamine B assay
- Format: functional
- CONDITION NOTES: read-out: pTGI (converted)
In plain terms, low TGI, meaning strictly below 10 µM, gives Y, and everything else gives N.

Asked: Please determine if COc1ccc(Oc2nc3cc(N)cc(N)c3nc2-c2ccccc2)cc1 is below 10 µM in terms of TGI.
Given back: N

Asked: Please determine if COc1ccc(CNc2nc3cc(N)cc(N)c3nc2-c2ccccc2)cc1 is below 10 µM in terms of TGI.
Given back: N

Asked: Please determine if COc1cc(CNc2nc3cc(N)cc(N)c3nc2-c2ccccc2)cc(OC)c1 is below 10 µM in terms of TGI.
Given back: Y

Asked: Please determine if Nc1cc(N)c2nc(-c3ccccc3)c(NCc3ccc(Cl)c(Cl)c3)nc2c1 is below 10 µM in terms of TGI.
Given back: N

Asked: Please determine if Nc1cc(N)c2nc(-c3ccccc3)c(Sc3ccc(Cl)c(Cl)c3)nc2c1 is below 10 µM in terms of TGI.
Given back: N

Asked: Please determine if COc1ccc(CNc2nc3cc(N)cc(N)c3nc2-c2ccccc2)cc1OC is below 10 µM in terms of TGI.
Given back: N

Asked: Please determine if Nc1cc(N)c2nc(-c3ccccc3)c(Oc3ccc(Cl)c(Cl)c3)nc2c1 is below 10 µM in terms of TGI.
Given back: N

Asked: Please determine if COc1ccc(Sc2nc3cc(N)cc(N)c3nc2-c2ccccc2)cc1 is below 10 µM in terms of TGI.
Given back: N

Asked: Please determine if COc1cc(OC)cc(Oc2nc3cc(N)cc(N)c3nc2-c2ccccc2)c1 is below 10 µM in terms of TGI.
Given back: Y
